assayed system: SGK2 (Homo sapiens, UniProt Q9HBY8, S356D)
Construct: pEBG-SGK2α expressing full length of SGK2α; made in house; host or cells: 293 cells (pEBG-2T-2 vector)
Sequence (Q9HBY8 1-367 S356D): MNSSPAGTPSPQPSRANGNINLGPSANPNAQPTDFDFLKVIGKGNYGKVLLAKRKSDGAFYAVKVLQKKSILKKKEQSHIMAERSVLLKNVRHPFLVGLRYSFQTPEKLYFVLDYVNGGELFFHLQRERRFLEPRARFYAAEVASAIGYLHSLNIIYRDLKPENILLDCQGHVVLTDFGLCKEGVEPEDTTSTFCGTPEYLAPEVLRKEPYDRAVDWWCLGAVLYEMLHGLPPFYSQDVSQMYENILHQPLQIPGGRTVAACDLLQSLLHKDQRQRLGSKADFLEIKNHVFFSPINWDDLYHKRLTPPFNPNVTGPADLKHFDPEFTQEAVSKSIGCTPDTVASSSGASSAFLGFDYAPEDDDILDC
test: Activity of SGK2 toward synthetic peptides related to Crosstide
Format: biochemical
details: GST-SGK2α[S356D] from 293 cells; each peptide 30 μM; average of two experiments
Description: Each GST-SGK isoform (0.4 μg) was incubated for 20 min at 30° C. with protein phosphatase 2A (PP2A, 30 mU/ml) in a 10 μl incubation containing 20 mM Tris/HCl, pH 7.5, 0.1% (v/v) 2-mercaptoethanol, 0.1 mM EGTA and 1 mg/ml bovine serum albumin. […] The papers were washed, dried and analysed. […]
recorded metric: SGK2 activity % relative to peptide 1 (Crosstide) (%)

substance	unit annotation	relation	observed value
GRPRTSSFAEG [Peptide 1, ID; NO: 30, reference compound]	%	=	100
PRTSSF [Peptide 4, ID; NO: 33]	%	<	1
RPRTSSL [Peptide 11, ID; NO: 40]	%	=	185
RPRTSSE [Peptide 15, ID; NO: 44]	%	=	34
KPRTSSF [Peptide 8, ID; NO: 37]	%	<	1
RPRTSAF [Peptide 3, ID; NO: 32]	%	<	1
RPRTSSK [Peptide 14, ID; NO: 43]	%	=	128
RPRTSTF [Peptide 6, ID; NO: 35]	%	=	192
RPRTSSA [Peptide 13, ID; NO: 42]	%	=	82
RPRTSSF [Peptide 2, ID; NO: 39]	%	=	182
RPKTSSF [Peptide 9, ID; NO: 38]	%	=	8
RPRTSS [Peptide 5, ID; NO: 31]	%	=	8
RPRTSSV [Peptide 12, ID; NO: 41]	%	=	124
